test system: Plasmodium berghei; test: Screen against P. berghei liver stage (PbLuc), transformed with Luciferase, at 10uM; format: functional, HepG2; conditions: tested at 10 uM
Among all 69,000 compounds or so, about 8,600 (12%) showed an effect of 50% or more. For the sample, strong results were picked, then their nearest neighbours and some compounds at random.
assay-readout: INHIBITION (%)

>>> assay_result("Cc1c[nH]nc1C1CN(c2cnccn2)CCO1 (stereo not drawn)")
24.05
>>> assay_result("Cc1cnc(N2C[C@H]3C[C@H](C(=O)N4CCN(C)CC4)N(C)[C@H]3C2)nc1")
-18.2
>>> assay_result("Cc1ccc(C(=O)CN(C2=NCCCCC2)c2ccccc2)cc1")
44.1
>>> assay_result("Cc1ccc(N(CC(=O)N2CCCCC2)C(=O)C2CCCO2)cc1 (stereo not drawn)")
-7.25
>>> assay_result("CC(C)N1CCC2(CC1)C(=O)N(CCN(C)C)c1ccccc12")
49.4
>>> assay_result("O=C(Cn1ccc(=O)cc1)N1C[C@@H]2CC[C@H]1CN(c1ncccn1)C2")
15.3
>>> assay_result("Cc1cccc(N(CC(=O)c2ccccc2)C2=NCCCCC2)c1")
51.6
>>> assay_result("NC(=O)c1ccc(N2CCCCC2)c(NC(=O)c2cc(F)ccc2F)c1")
93.1
>>> assay_result("COCCCN1Cc2cccc(NC(=O)c3cc(F)ccc3F)c2C1")
32.9
>>> assay_result("CC(=O)NCC(=O)N1CCN(CCN(C)C)c2ncccc2C1")
6.79
>>> assay_result("CNc1nc(CNC(=O)Nc2ccccc2OC(C)C)cs1")
32.3
>>> assay_result("O=C(CN(C1=NCCCCC1)c1ccc(Cl)cc1)c1ccccc1")
59.8
>>> assay_result("NC(=O)c1ccc(N2CCCCC2)c(NC(=O)c2ccc(F)cc2F)c1")
89.1
>>> assay_result("O=C(c1cc2ccccc2[nH]1)N1CCCCC1Cn1cccn1 (stereo not drawn)")
48.1
>>> assay_result("O=C(NC1CCC1)[C@H]1C[C@H]2CN(C(=O)Nc3ccc(F)cc3)C[C@@H]1O2")
1.9
>>> assay_result("CCC(O)CNc1ccc(-c2nc(CC(C)C)no2)cn1 (stereo not drawn)")
1.79
>>> assay_result("CNc1nc(CNC(=O)Nc2cccc(C)c2Cl)cs1")
-25.15
>>> assay_result("O=C(c1cc(Br)ccc1-n1cnnn1)N1CCCCC1")
24.2
>>> assay_result("Cc1nc(C(=O)N2CCCC2c2c(C)nn(C)c2Cl)ccc1C#N (stereo not drawn)")
0.914
>>> assay_result("CN(C)CC(=O)N1CCC2(CCN(Cc3cccc(F)c3)CC2)C1")
9.97
>>> assay_result("NC(=O)c1ccc(N2CCCCC2)c(NC(=O)c2ccc(Br)cc2)c1")
39.5
>>> assay_result("NC(=O)c1ccc(N2CCCCC2)c(NC(=O)c2cc(Br)ccc2Cl)c1")
81.2
>>> assay_result("NC1CCCN(C(=O)c2csc(-c3ccc(C(F)(F)F)cc3)n2)CC1 (stereo not drawn)")
32.4

----------
test system: Plasmodium berghei; assay: Screen against P. berghei liver stage (PbLuc), transformed with Luciferase, at 10uM; type: functional, HepG2; details: tested at 10 uM
About 8,600 (12%) of roughly 69,000 compounds showed an effect of 50% or more. The sample holds strong results, similar compounds and a random draw of the others, so the mix is not that of the screen.
Categorize each record by its INHIBITION using lower: < 10%; middle: ≥ 10% and < 50%; upper: ≥ 50%

>>> group("CCOCCN1CCN(Cc2nnc(C3CC3)o2)CC1")
"middle"
>>> group("O=C(NC1CCS(=O)(=O)C1)N1CCN(c2cnccn2)CC1 (configuration not stated)")
"middle"
>>> group("CS(=O)(=O)N1CCOCC2(CCN(Cc3ccoc3)CC2)C1")
"middle"
>>> group("Cc1ccc(S(=O)(=O)N2CCC(c3n[nH]cc3C)C2)cc1 (configuration not stated)")
"middle"
>>> group("Cc1cc(C)c(CNC(=O)N2CCN(c3ccccn3)CC2)c(=O)[nH]1")
"lower"
>>> group("COc1ccc(NC(=O)NCCCn2nc3ccccn3c2=O)cc1")
"middle"
>>> group("Cc1cc(C)c(CNC(=O)NCCNc2cnccn2)c(=O)[nH]1")
"upper"
>>> group("O=C(c1cccc(Cl)c1)N1CCCC2(CCCNC2)C1 (configuration not stated)")
"lower"
>>> group("CCOCCN1CCN(Cc2nnc(C3CC3)o2)CC1CC (configuration not stated)")
"lower"
>>> group("CCOCCN1CCN(Cc2nnc(C3CC3)o2)CC1C (configuration not stated)")
"upper"
